system: HCT-116 colon; assay: NCI tumour cell line growth inhibition, 48 h
TGI values by entry
Report only the number, with the unit µM understood.

CN1CCN(c2ccc(NC(=O)c3nc4ccc5[nH]ncc5c4c4c3CCCC4)cc2C(F)(F)F)CC1    1.5
CC(=O)O[C@@H]1C[C@@]23C[C@@]24CC[C@H](OC2OCC(O)C(O)C2O)C(C)(C)[C@@H]4CC=C3[C@]2(C)C[C@@H]3OC4(C[C@@H](C)[C@@H]3[C@@]12C)OC(O)[C@@]1(C)O[C@@H]41 (stereo partly drawn)    49.7
O=C1C=CC(=O)C(CNc2ccc(C(=O)OC34CC5CC(CC(C5)C3)C4)cc2)=C1    22.5

// moving on: another record for TGI
Which TGI is reported for this molecule? Cn1nc(-c2ccccc2)c(C(=O)/C=C/c2ccc(F)cc2)c(N2CCCCC2)c1=O 11.5
